Target: sGC α1/β1 heterodimer (Homo sapiens, UniProt Q02108+Q02153)
Sequence (Q02108 1-690): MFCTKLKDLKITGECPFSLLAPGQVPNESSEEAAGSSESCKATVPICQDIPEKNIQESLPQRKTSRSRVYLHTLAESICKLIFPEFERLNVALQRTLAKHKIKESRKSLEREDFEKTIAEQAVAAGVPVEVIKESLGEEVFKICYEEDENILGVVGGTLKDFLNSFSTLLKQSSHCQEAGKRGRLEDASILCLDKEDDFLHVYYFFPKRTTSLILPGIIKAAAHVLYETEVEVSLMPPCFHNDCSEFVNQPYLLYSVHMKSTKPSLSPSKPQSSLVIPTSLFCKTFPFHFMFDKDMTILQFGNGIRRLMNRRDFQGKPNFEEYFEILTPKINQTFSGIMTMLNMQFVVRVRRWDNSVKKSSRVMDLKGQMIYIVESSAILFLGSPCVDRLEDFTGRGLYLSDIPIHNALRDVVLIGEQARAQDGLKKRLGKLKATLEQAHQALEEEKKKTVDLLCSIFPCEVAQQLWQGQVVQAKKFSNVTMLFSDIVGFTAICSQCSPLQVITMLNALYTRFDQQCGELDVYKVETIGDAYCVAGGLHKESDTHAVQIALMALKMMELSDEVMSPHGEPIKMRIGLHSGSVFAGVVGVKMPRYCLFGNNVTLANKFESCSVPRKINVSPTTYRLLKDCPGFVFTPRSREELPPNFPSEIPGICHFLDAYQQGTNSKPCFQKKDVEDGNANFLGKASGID
Sequence (Q02153 1-619): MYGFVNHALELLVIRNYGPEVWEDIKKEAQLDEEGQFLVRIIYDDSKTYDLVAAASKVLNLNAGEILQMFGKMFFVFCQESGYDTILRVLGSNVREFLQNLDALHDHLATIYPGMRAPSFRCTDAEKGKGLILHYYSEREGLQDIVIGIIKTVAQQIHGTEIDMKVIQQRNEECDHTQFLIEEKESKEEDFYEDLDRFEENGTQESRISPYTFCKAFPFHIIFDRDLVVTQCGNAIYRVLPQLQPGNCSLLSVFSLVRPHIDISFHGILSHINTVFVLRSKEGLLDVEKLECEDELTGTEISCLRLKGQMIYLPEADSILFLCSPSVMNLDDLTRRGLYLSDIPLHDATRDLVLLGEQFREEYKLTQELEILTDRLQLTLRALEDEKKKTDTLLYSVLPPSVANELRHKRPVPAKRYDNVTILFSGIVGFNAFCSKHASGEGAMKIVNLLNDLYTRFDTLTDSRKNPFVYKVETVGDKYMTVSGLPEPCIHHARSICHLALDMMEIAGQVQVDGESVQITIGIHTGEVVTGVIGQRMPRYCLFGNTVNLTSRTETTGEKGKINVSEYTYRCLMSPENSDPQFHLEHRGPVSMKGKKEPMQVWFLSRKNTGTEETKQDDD
Test: Cell-based sGC functional assay (CASA assay): cGMP generation in CHO-K1/sGC cells, HTRF detection
Settings: inflection point (IP) of cGMP generation in CHO-K1/sGC cells, 4P fit; activity expressed as percentage of Compound A
pEC50: −log10 of the molar value.
Quick reference for pEC50 among some compounds

- compound: "CN1CCN(c2nc(-c3cn4ccnc4c(CCC(F)(F)C(F)(F)F)n3)nc3c2C(C)(c2ccc(F)cc2)C(=O)N3)CC1 (stereo not shown) [Example 311A]"
  pEC50: 7.54
- compound: "CCc1nc(C2(C)C(=O)Nc3nc(-c4cn5ccnc5c(CCC(F)(F)C(F)(F)F)n4)nc(N)c32)no1 (stereo not shown) [Example 320B]"
  pEC50: 7.07
- compound: "Cc1cnc2c(Cc3ccc(F)cc3)nc(-c3nc(N)c4c(n3)NC(=O)C4(C)c3ccc(F)cn3)cn12 (stereo not shown) [Example 163B]"
  pEC50: 6.64
- compound: "C[C@@H]1CN(c2nc(-c3cn4ccnc4c(CCC(F)(F)C(F)(F)F)n3)nc3c2C(C)(c2ccc(F)cc2)C(=O)N3)C[C@H](C)O1 (stereo partly shown) [Example 303A]"
  pEC50: 6.37
- compound: "Cc1cn2cc(-c3nc(N)c4c(n3)NC(=O)C4(C)c3ccc(F)cn3)nc(Cc3ccc(F)cc3)c2n1 (stereo not shown) [Example 162B]"
  pEC50: 6.77
- compound: "CCCCc1nc(-c2nc(N)c3c(n2)NC(=O)C3(c2cc(C(F)(F)F)ccn2)C2CC2)cn2ccnc12 (single isomer, unassigned) [Example 367B]"
  pEC50: 6.81
- compound: "CC1(c2ccc(C3CC3)cn2)C(=O)Nc2nc(-c3cn4ccnc4c(CCC(F)(F)C(F)(F)F)n3)nc(N)c21 (stereo not shown) [Example 227B]"
  pEC50: 6.60
- compound: "CC(C)n1cc(C2(C)C(=O)Nc3nc(-c4cn5ccnc5c(Cc5ccc(F)cc5)n4)nc(N)c32)nn1 (stereo not shown) [Example 63A]"
  pEC50: 6.96
- compound: "Nc1nc(-c2cn3ccnc3c(CCC(F)(F)C(F)(F)F)n2)nc2c1C(c1ccc(Cl)cn1)(C1CC1)C(=O)N2 (stereo not shown) [Example 245B]"
  pEC50: 7.11
- compound: "Cc1cncc(C2(C3CC3)C(=O)Nc3nc(-c4cn5ccnc5c(CCCC(F)(F)F)n4)nc(N)c32)n1 (single isomer, unassigned) [Example 365B]"
  pEC50: 6.15
- compound: "CC1(c2ccc(Cl)cc2)C(=O)Nc2nc(-c3cn4ccnc4c(C4CCC4)n3)nc(N)c21 (stereo not shown) [Example 15A]"
  pEC50: 7.09
- compound: "CC(C)C1(C)C(=O)Nc2nc(-c3cn4ccnc4c(Cc4ccccc4)n3)nc(N)c21 (stereo not shown) [Example 80A]"
  pEC50: 7.18
- compound: "Nc1nc(-c2cn3ccnc3c(CCC(F)(F)C(F)(F)F)n2)nc2c1C(c1cccnc1)(C1CC1)C(=O)N2 (single isomer, unassigned) [Example 359B]"
  pEC50: 6.52
- compound: "CCn1cc(C2(C)C(=O)Nc3nc(-c4cn5ccnc5c(Cc5ccc(F)cc5)n4)nc(N)c32)nn1 (stereo not shown) [Example 64A]"
  pEC50: 6.71
- compound: "CC1(c2ccc(Cl)cc2)C(=O)Nc2nc(-c3cn4ccnc4cn3)nc(NCCCC(F)(F)F)c21 (stereo not shown) [Example 285A]"
  pEC50: 7.70
- compound: "CC(C)Cc1nc(-c2nc(N)c3c(n2)NC(=O)C3(c2ccc(Cl)cc2)C2CC2)cn2ccnc12 (stereo not shown) [Example 22B]"
  pEC50: 6.82
- compound: "CCOC(=O)CCNc1nc(-c2cn3ccnc3c(CCC(F)(F)F)n2)nc2c1C(C)(c1ccc(Cl)cc1)C(=O)N2 (stereo not shown) [Example 298A]"
  pEC50: 6.92
- compound: "CC1(c2ccc(Cl)cc2)C(=O)Nc2nc(-c3cn4ccnc4c(Cc4ccc(F)cc4)n3)nc(N)c21 (stereo not shown) [Example 99A]"
  pEC50: 7.96
- compound: "Nc1nc(-c2cn3ccnc3c(CCC(F)(F)F)n2)nc2c1C(c1ccc(F)cc1)(C1CCC1)C(=O)N2 (single isomer, unassigned) [Example 345B]"
  pEC50: 6.02
- compound: "Nc1nc(-c2cn3ccnc3c(CCCC(F)(F)F)n2)nc2c1C(c1ccc(C(F)(F)F)cn1)(C1CC1)C(=O)N2 (stereo not shown) [Example 219A]"
  pEC50: 7.28
- compound: "Cc1ccc(C2(C)C(=O)Nc3nc(-c4cn5ccnc5c(Cc5ccc(F)cc5)n4)nc(N)c32)cn1 (stereo not shown) [Example 105A]"
  pEC50: 6.42
- compound: "CC1(c2ccc(F)cc2)C(=O)Nc2nc(-c3cn4ccnc4c(-c4ccccc4)n3)nc(N)c21 (stereo not shown) [Example 112A]"
  pEC50: 6.54
- compound: "CCC1(CC)C(=O)Nc2nc(-c3cn4ccnc4c(Cc4ccccc4)n3)nc(N)c21 [Example 79]"
  pEC50: 7.44
- compound: "CC(C)Cc1nc(-c2nc(N)c3c(n2)NC(=O)C3(C)c2ccc(OC(F)(F)F)cc2)cn2ccnc12 (stereo not shown) [Example 25A]"
  pEC50: 6.49
- compound: "CC1(c2ccc(Cl)cc2)C(=O)Nc2nc(-c3cn4cc(C(F)(F)F)nc4c(Cc4ccccc4F)n3)nc(N)c21 (stereo not shown) [Example 151A]"
  pEC50: 7.72
- compound: "CC(C)Cc1nc(-c2nc(N)c3c(n2)NC(=O)C3(C)c2ccc(F)cn2)cn2ccnc12 (stereo not shown) [Example 23B]"
  pEC50: 6.59
- compound: "CC1(c2ccc(Cl)cn2)C(=O)Nc2nc(-c3cn4ccnc4c(CCC(F)(F)F)n3)nc(N)c21 (stereo not shown) [Example 201A]"
  pEC50: 6.03
- compound: "CC1(F)CN(c2nc(-c3cn4ccnc4cn3)nc3c2C(C)(c2ccc(Cl)cc2)C(=O)N3)C1 (stereo not shown) [Example 284A]"
  pEC50: 6.99

All values here come from patent US9796733B2.
